- procedure-summary: qHTS RealTime-Glo MT Cell Viability Assay in HepG2 cells - 24 hour (AID 1224867); further: nearly all actives have a fitted effect of over 50% in size
- experimental-parameters: RealTime-Glo luminescence; series mostly up to 76.8 µM
Results filed as inconclusive are left out. Calls of active or inactive are those of the source. The call rests on the fitted dose curve; in most records, active means well fitted cell-killing curve with a large enough effect in the repeat runs; inconclusive means weak or mixed curves; inactive means flat fitted curve, though single readings scatter.
attribute-measured: activity change, negative = cytotoxicity

CCC(=O)OC(C)(C)C1CC=C(C)CC1 (configuration not stated) = inactive
CC(C(=O)O)c1ccc(C(=O)c2ccccc2)s1 (configuration not stated) = inactive
COc1ccc(OC)c(OC)c1 = inactive
Cc1ccc(C(C)c2ccc(C)c(C)c2)cc1C = inactive
C=CC(=O)OCCOC(=O)CCC(=O)O = inactive
C[Si](C)O[Si](C)(C)O[Si](C)(C)O[Si](C)C = inactive

Request: Quick one: activity change, negative = cytotoxicity for CCN(CC)C(C)=O ?
Result: inactive

Request: GET /values?readout=activity change, negative = cytotoxicity&item= CC(C)c1ccc2c(C(C)C)cc(C(C)C)c(S(=O)(=O)O)c2c1
Result: inactive

Request: Need activity change, negative = cytotoxicity of COc1cc(C(C)(C)C)c(O)c(C(C)(C)C)c1 , thanks.
Result: inactive

Request: Would you kindly share the measured activity change, negative = cytotoxicity for CC1=CC(=O)/C(=C(/C)O)C(=O)O1 ?
Result: inactive

Request: Can you look up the measured activity change, negative = cytotoxicity of CCCOc1ccc2nc(NC(=O)OC)[nH]c2c1 for me?
Result: inactive

Request: Fill in the blank: the reported activity change, negative = cytotoxicity of O=C(/C=C/c1ccc(O)c(O)c1)O[C@@H]1C[C@](O)(C(=O)O)C[C@@H](O)[C@H]1O is ____.
Result: inactive

Request: Recorded activity change, negative = cytotoxicity of C[C@H](CCC(=O)O)[C@H]1CC[C@H]2[C@@H]3[C@H](O)C[C@@H]4C[C@H](O)CC[C@]4(C)[C@H]3CC[C@]12C , please.
Result: inactive

Request: GET /values?readout=activity change, negative = cytotoxicity&item= CC(C)CCCC(C)CCO (configuration not stated)
Result: inactive

Request: // query activity change, negative = cytotoxicity value for entry O=S1(=O)c2cccc3cccc(c23)N1CCCN1CCN(c2ccc(F)cc2)CC1
Result: inactive

Request: Quick one: activity change, negative = cytotoxicity for CC(C)CC=O ?
Result: inactive

Request: Please report the recorded activity change, negative = cytotoxicity for CCCCOCCOCCOCCOCCO .
Result: inactive

Request: Fill in the blank: the reported activity change, negative = cytotoxicity of N[C@H]1C(O)O[C@H](CO)[C@H](O)[C@@H]1O (some centres not stated) is ____.
Result: inactive

Request: Value lookup for activity change, negative = cytotoxicity; key = Oc1ccc(Cc2ccccc2)cc1
Result: inactive

Request: Endpoint output: activity change, negative = cytotoxicity of O=S(=O)(O)c1ccc(O)c2ncccc12 . Value?
Result: inactive

Request: Which activity change, negative = cytotoxicity is reported for this molecule? N=C(N=C(N)N)N1CCOCC1
Result: inactive

Request: // returns reported activity change, negative = cytotoxicity for input Cc1ccccn1
Result: inactive

Request: // query activity change, negative = cytotoxicity value for entry CC(C)NCC(O)c1cc(O)cc(O)c1 (configuration not stated)
Result: inactive

Request: Given CCOc1ccc2[nH]cc(C(=O)NCc3ccccc3)c(=O)c2n1 , state its recorded activity change, negative = cytotoxicity.
Result: inactive

Request: Query: activity change, negative = cytotoxicity; subject: Cc1ccc(O)c([C@H](CCN(C(C)C)C(C)C)c2ccccc2)c1
Result: inactive

Request: Which activity change, negative = cytotoxicity reading was recorded for the molecule Cc1cc(NC(=O)C(=O)O)cc(C)c1Oc1ccc(O)c2c1CCC2 ?
Result: inactive

Request: I would be grateful if you could share the reported activity change, negative = cytotoxicity for O=C(O)COC(=O)Cc1ccccc1Nc1c(Cl)cccc1Cl .
Result: inactive
